Cited source for all entries: the supplement of paper PMC10567573

B1: CLK3 (parent)
chain: FGEDYYGPSRSRHRRRSRERGPYR

Variants of: B1
Experiment: protein stability index of a GFP-peptide fusion (GPS, HEK-293T) (PSI 1-6); higher = more stable;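 further: lentivirally expressed fusions sorted by FACS into six bins by GFP to DsRed ratio, PSI derived from sequencing read proportions per bin multiplied by bin number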
Conditions: c terminus: a fixed tail appended

Mutation list | protein stability index
R20L | 2.45
S9A | 2.39
R16D | 2.15
G7S | 3.25
G7V | 4.13
R24Q | 2.14
D4V | 3.58
Y23D | 2.89
E19V | 4.11
Y5M | 3.5
G21L | 2.91
R20E | 2.27
R12V | 2.11
R20Q | 2.79
S11A | 2.97
Y5D | 4.95
Y6T | 4.27
S9I | 2.47
R20Y | 2.3
R12L | 1.48
R16Q | 2.97
R18W | 3.29
H13N | 2.55
R14E | 2.66
R12T | 2.27
F1L | 4.08
Y6C | 4.75
Y5C | 4.48
G2R | 4.89
G2F | 3.98
R14H | 2.44
R10H | 3.62
R16L | 1.62
H13P | 2.96
R15V | 2.1
R18S | 1.83
S9N | 2.82
R14P | 2.08
S9R | 3
R12A | 2.13
P22R | 1.97
G21F | 3.47
R24V | 2.46
Y23S | 2.62
R24L | 1.96
R10F | 2.31
Y23R | 2.11
Y23I | 2.31
P8V | 1.42
S9T | 2.58
R10L | 3.03
G2A | 2.87
E19H | 4.09
Y6K | 5.1
S17K | 2.81
P8G | 2.3
F1Y | 3.36
S17G | 3.1
H13A | 2.16
H13D | 2.16
R20V | 2.22
E19L | 3.42
R24H | 2.67
R20N | 2.11
Y6A | 4.61
H13M | 3.25
F1I | 4.57
G21Q | 2.8
Y5F | 3.11
R20M | 2.3
D4G | 1.9
R18M | 2.89
F1T | 5.16
E3F | 4.87
E3G | 2.27
R20C | 2.72
R18N | 1.96
P8Q | 1.59
S17I | 3.18
P8A | 1.71
R14Q | 2.25
G2V | 1.03
R15S | 2.04
H13T | 2.7
D4C | 2.81
Y6Q | 5.36
R12K | 3.19
G7W | 2.06
R12G | 2.16
E19Q | 3.2
P22I | 2.2
